AC50, Cytochrome P450 3A4 (Homo sapiens): measured values

CC(C)CCN=C(S)NC1CCCC1; 22.4 µM (inconclusive)

Which AC50 value belongs to N#CC(c1ccccc1F)(c1ncc(C(F)(F)F)cc1Cl)N1CCOCC1 (centres undefined) ?
22.4 µM (inconclusive)

Which AC50 value belongs to O=c1c(-c2cccc(Cl)c2)nc2cncnc2n1C1CC1 ?
15.8 µM (inconclusive)

Which AC50 value belongs to COc1cccc(/C=N\NC(=O)c2cc(OCC(F)(F)F)ccc2OCC(F)(F)F)c1 ?
35.5 µM (inconclusive)

====

measured on: Short transient receptor potential channel 4 (Mus musculus)
Sequence (Q9QUQ5 whole entry): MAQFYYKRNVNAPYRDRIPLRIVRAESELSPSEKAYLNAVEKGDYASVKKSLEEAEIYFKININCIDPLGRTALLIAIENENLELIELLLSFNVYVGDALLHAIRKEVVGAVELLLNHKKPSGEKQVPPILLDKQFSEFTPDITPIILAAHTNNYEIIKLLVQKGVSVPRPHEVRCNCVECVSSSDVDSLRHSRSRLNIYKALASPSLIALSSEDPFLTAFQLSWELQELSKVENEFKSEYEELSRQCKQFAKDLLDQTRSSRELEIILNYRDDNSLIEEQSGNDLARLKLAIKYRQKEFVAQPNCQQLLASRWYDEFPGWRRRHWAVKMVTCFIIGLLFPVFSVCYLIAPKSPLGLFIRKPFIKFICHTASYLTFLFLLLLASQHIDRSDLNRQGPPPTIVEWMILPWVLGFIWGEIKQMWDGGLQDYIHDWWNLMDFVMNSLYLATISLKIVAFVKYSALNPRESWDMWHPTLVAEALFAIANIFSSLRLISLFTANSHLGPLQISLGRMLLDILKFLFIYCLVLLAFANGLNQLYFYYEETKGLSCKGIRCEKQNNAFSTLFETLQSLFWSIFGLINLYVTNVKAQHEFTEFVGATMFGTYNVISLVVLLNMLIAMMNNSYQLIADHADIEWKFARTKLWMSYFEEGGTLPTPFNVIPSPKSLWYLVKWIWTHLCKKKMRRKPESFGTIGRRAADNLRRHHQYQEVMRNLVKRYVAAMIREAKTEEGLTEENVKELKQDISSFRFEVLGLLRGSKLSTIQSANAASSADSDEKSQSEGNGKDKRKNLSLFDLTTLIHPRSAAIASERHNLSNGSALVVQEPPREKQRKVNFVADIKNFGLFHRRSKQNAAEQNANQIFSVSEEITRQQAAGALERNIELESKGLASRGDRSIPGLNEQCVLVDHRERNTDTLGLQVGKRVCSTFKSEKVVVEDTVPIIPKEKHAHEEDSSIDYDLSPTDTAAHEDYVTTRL
assay procedure: calcium entry via TRPC4 opening agents – cell-based, HEK293 TRPC4/mu-opioid, Fluo-4 calcium, dose response (AID 434937)
Assay type: functional
Calls of active or inactive are those of the source.
quantity measured: EC50

Query for Short transient receptor potential channel 4 (Mus musculus): what EC50 does the record show for Cc1ccccc1OCC(=O)NNC(=S)NC(=O)c1ccco1 ?
9.44 µM (active)

====

measured on: UniProtKB P38532
Sequence (P38532 whole entry): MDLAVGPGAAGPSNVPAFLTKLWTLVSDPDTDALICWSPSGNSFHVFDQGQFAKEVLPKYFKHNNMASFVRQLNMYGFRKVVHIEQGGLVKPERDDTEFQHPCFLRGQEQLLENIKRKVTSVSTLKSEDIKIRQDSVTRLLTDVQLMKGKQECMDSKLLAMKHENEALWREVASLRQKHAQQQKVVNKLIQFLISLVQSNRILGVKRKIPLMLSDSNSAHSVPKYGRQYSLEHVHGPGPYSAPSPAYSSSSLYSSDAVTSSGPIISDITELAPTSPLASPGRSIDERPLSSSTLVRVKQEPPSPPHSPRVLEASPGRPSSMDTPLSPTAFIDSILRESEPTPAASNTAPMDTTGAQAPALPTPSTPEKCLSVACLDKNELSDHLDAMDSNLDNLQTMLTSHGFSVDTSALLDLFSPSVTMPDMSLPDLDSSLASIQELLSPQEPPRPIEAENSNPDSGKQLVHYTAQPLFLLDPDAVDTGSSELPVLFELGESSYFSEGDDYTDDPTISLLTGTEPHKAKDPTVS
assay procedure: enhancement of HSF1-driven luciferase signal – cell-based, NIH3T3, luminescence, dose retest, confirmation (AID 435004);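 note: stress induced by proteasome inhibitor MG132 added 30 min after compound; luciferase reporter driven by HSF1 response element in NIH3T3 cells; actives raise luminescence as potentiators of the MG132 stress response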
Type: functional
Activity calls are given as the source filed them.
Write down the outcome that applies. Available outcomes: T = active, F = inactive

Look over these answered cases.
COc1ccc(S(=O)(=O)N[C@@H](Cc2ccccc2)C(=O)N2CC[C@@]3(O)CCCC[C@H]3C2)cc1; F
CCOC(=O)c1c(C)[nH]c(C)c1C(=O)COc1ncnc2cc([N+](=O)[O-])ccc12; F
CCC(=O)Nc1ccccc1C(=O)OCC(=O)c1ccccc1; T
Cc1ccc(C(=O)CSc2nnnn2C(C)C)c(C)c1; F
CCn1cc(C(=O)NN)c(=O)c2cc(F)c(NC3CCCCC3)cc21; F
Cc1c(NC(=O)C(C)N2CC(C)OC(C)C2)c(=O)n(-c2ccccc2)n1C (stereo not drawn); F
Cc1ccccc1-n1nnc2c(=O)oc3ccccc3c21; F

From here, focus on the item given below.
Recorded call for Cc1cccc(C)c1N1CCN(c2ccc3nnc(C(F)(F)F)n3n2)CC1 ?
T

====

measured on: Cytochrome P450 2D6 (Homo sapiens, UniProt P10635)
Sequence (P10635 whole entry): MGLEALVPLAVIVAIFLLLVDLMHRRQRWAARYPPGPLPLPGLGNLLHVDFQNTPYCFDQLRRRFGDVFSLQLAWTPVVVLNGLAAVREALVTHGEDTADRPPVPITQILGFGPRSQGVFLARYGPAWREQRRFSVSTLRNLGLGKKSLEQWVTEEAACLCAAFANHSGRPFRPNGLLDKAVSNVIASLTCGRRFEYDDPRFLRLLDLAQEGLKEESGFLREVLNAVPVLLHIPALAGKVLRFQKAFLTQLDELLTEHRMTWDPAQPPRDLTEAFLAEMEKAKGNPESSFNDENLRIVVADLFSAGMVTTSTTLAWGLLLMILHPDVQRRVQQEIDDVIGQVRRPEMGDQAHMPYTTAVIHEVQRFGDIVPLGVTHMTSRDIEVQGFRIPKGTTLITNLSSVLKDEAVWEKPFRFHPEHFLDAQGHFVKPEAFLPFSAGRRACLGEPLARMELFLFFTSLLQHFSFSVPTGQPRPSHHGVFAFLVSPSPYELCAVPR
AC50 for assorted compounds

For orientation, consider the following solved cases.
CC(=O)Nc1ccc(N2CCCCC2)c(C(=O)Nc2cccc(C)c2)c1; 17.8 µM (inconclusive)
COc1ccc(/C=N/NC(=O)CCCOc2ccc(Cl)cc2Cl)cc1[N+](=O)[O-]; 10 µM (inconclusive)
S=C1SCN(Cc2ccccn2)CN1Cc1ccco1; 17.8 µM (inconclusive)
O=c1c2ccccc2nc(N2CCCC2)n1-c1ccc(Cl)cc1; 10 µM (inconclusive)
Cc1cc(OCc2ccc([N+](=O)[O-])cc2)c2c3c(c(=O)oc2c1)CCCC3; 3.16 µM (inconclusive)

Which AC50 value belongs to C=CCOc1c2ccc(C(=O)NC3CCCc4ccccc43)cc2nn1C (stereo unspecified) ?
22.4 µM (inconclusive)
